src = PubChem BioAssay (NCI)

# Test system: HOP-92 NSCLC
# Protocol: NCI tumour cell line growth inhibition, 48 h; in the data active = GI50 below about 0.43 µM; inactive = the rest
A correct response names exactly one class from active, inactive

These recorded examples may help you get a feel for the data.
| Molecule | Target Entity | Assigned Label |
| --- | --- | --- |
| Cc1cc(S(=O)(=O)/N=C(\N)Nc2cccc(O)c2)c(SCc2ccccc2)cc1Cl | HOP-92 NSCLC | inactive |
| O=c1cc(-c2ccc(Cl)cc2)[nH]c2ccccc12 | HOP-92 NSCLC | inactive |
| C[C@@H]1CC[C@H]2[C@@H](C)C(O)O[C@@H]3O[C@]4(C)CC[C@@H]1[C@]32OO4 (some centres not stated) | HOP-92 NSCLC | inactive |
| CCn1cnc(C[C@H](NC(=O)[C@H](CCCCNC(=O)Nc2cc(C(F)(F)F)cc(C(F)(F)F)c2)NC(=O)Nc2cc(C(F)(F)F)cc(C(F)(F)F)c2)C(=O)OC)c1 | HOP-92 NSCLC | inactive |
| C[C@@H](O)[C@@H](C)Oc1nc(Nc2ccc(S(=N)(=O)C3CC3)cc2)ncc1C(F)(F)F (some centres not stated) | HOP-92 NSCLC | active |

Please share the test call associated with `CC/C=C\C[C@H]1C/C=C2/C(=O)C=C[C@H]2C/C=C\CCCC(=O)O1` .
inactive

Same read-out for `CN(C)c1ccc(C(=S)c2ccc(N(C)C)cc2)cc1` ?
inactive

Same read-out for `Oc1ccc(NC(=S)Nc2ccccc2)cc1` ?
inactive

---

# System: HL-60(TB) leukemia
# Protocol: NCI tumour cell line growth inhibition, 48 h
Assay Endpoint: TGI

Field: example entries. Status: answers known.
| Compound | Target Entity | TGI |
| --- | --- | --- |
| NC(CCSCC(F)(F)F)C(=O)O (configuration not stated) | HL-60(TB) leukemia | > 100 µM |
| CCCC(=O)OCC1OC2OC(C)(C)OC2C2OC(C)(C)OC12 (configuration not stated) | HL-60(TB) leukemia | > 100 µM |
| N#C/C(=C\c1ccc(O)c(O)c1)C(=O)NCc1ccc(C(F)(F)F)cc1 | HL-60(TB) leukemia | > 66.5 µM |

TGI for `O=[N+]([O-])c1cc(C2(N3CCCCC3)CCCCC2)sc1Br` ?
5.24 µM

Same read-out for C=C1CCC2CC1C(C(=O)c1c[nH]c3ccccc13)=NC2(C)C (configuration not stated) ?
> 100 µM

Same read-out for c1ccc(-c2csc3c2-n2cccc2C3N2CCCC2)cc1 (configuration not stated) ?
> 100 µM

Same read-out for `O=C(NCCCCCCCCCCCCNC(=O)c1cnc2ccccc2n1)c1cnc2ccccc2n1` ?
> 100 µM

Same read-out for `O=C(O)c1cc2ccccc2c(Cc2c(O)c(C(=O)O)cc3ccccc23)c1O` ?
> 100 µM

Same read-out for `c1ccc(CN2CCC(=NN3CCCCC3)CC2)cc1` ?
43.9 µM

Same read-out for `CCN(C(=O)N1CCN(c2cc3c(cc2F)c(=O)c(C(=O)O)cn3C2CC2)CC1)c1nc(-c2ccccc2)cs1` ?
4.35 µM

Same read-out for `COc1ccccc1-n1cnc2c1NC(C)(C)N=C2C(N)=O` ?
> 100 µM

Same read-out for `COc1ccc(-n2cc(-c3cc(OC)c(OC)c(OC)c3)nc2SCc2ccc(Cl)cc2)cc1OC` ?
> 100 µM

Same read-out for `OCC#CCOCC#Cc1ccccc1C#CCOCC#CCO` ?
> 100 µM

Same read-out for `Cc1cc(OCc2nc(N)nc(N)c2-c2ccc(Cl)c(Cl)c2)ccc1[N+](=O)[O-]` ?
3.56 µM

---

# Tested on: COLO 205 colon
# Protocol: NCI tumour cell line growth inhibition, 48 h
Rule: condition met for TGI not less than 20 µM, condition not met for anything less.

| Compound | Target Entity | Assigned Label |
| --- | --- | --- |
| CC[C@H](C)[C@H](NC(=O)N(CCC#N)CCN(CCN(C(=O)N[C@@H](Cc1ccccc1)C(=O)OC)c1ccccc1)C(=O)N[C@H](C(=O)OC)C(C)C)C(=O)OC | COLO 205 colon | condition met |

Does Cc1cccc(C(C)(C)C)c1NC(=O)C(C#N)C1=C(Cl)C(=O)c2ccccc2C1=O (centres undefined) have a reported TGI of at least 20 µM?
condition met

Same read-out for Cc1ccc2nc(NC(=O)C(=O)C(C(=O)c3ccc4ccccc4c3)C3OC(=O)c4ccccc43)sc2c1 (centres undefined) ?
condition met

Same read-out for OCC1NC(COC2OC(CO)C(O)C(O)C2O)C(O)C(O)C1O (centres undefined) ?
condition met

Same read-out for `CCN(C(=O)N1CCN(c2cc3c(cc2F)c(=O)c(C(=O)O)cn3C2CC2)CC1)c1nc(-c2ccccc2)cs1` ?
condition not met

Same read-out for `O=c1oc2cc(O)ccc2c2[nH]c3cc(O)ccc3c12` ?
condition met

Same read-out for `COc1ccc(-n2cc(-c3cc(OC)c(OC)c(OC)c3)nc2SCc2ccc(Cl)cc2)cc1OC` ?
condition met

Same read-out for CC(=O)c1ccc(N2C(=O)C3c4[nH]c5ccccc5c4C4CCC(C(C)(C)C)CC4C3C2=O)cc1 (centres undefined) ?
condition met

Same read-out for `Clc1ccc(-c2cc(-c3ccccc3)nc(N3CCN(CCCNc4ccnc5cc(Cl)ccc45)CC3)n2)cc1` ?
condition not met

Same read-out for Cc1ccc(C2(O)c3ccccc3C(=O)N(C)C2(O)c2ccc(C)cc2)cc1 (centres undefined) ?
condition met

Same read-out for C=C1C(=O)OC2C1CCC(=C)C1CC(O)C(=C)C12 (centres undefined) ?
condition not met

Same read-out for `N#Cc1ncc(C(Cl)Cl)nc1Cl` ?
condition not met

Same read-out for `O=C(N/N=C(/COc1ccccc1)N=Cc1ccncc1)c1ccncc1` ?
condition met

Same read-out for `Cc1c2cnccc2c(C)c2c1c1cc(O)ccc1n2C(C)C` ?
condition not met

Same read-out for C[C@H]1CCC/C=C/C2CC(OC(=O)CN(C)C)CC2C(OC(=O)CN(C)C)/C=C/C(=O)O1 (some centres undefined) ?
condition not met

Same read-out for `Cn1c(N/N=C/c2ccccc2)nc(-c2ccc3c(c2)OCO3)c(C#N)c1=O` ?
condition met

Same read-out for `Oc1cc(O)c2c(c1)O[C@H](c1ccc(O)c(O)c1)[C@@H](O)C2` ?
condition met

Same read-out for `C=CC(=O)N[C@@H]1CN(c2nc(Nc3cn(C)nc3OC)c3ncn(C)c3n2)C[C@H]1F` ?
condition met

Same read-out for `Cc1cc(F)c(C(=O)Nc2cccc(-c3nncn3C(C)C)n2)cc1-n1cnc(C2CC2)c1` ?
condition met

---

Reported TGI values for a set of compounds
# Tested on: OVCAR-5 ovarian
# Protocol: NCI tumour cell line growth inhibition, 48 h

| Compound | Target Entity | Assay Endpoint | Value Observed |
| --- | --- | --- | --- |
| CN(C)c1ccc(/C=C/C(=O)c2ccc(Nc3nc(Nc4ccc(F)cc4)nc(Nc4ccc(F)cc4)n3)cc2)cc1 | OVCAR-5 ovarian | TGI | > 100 µM |
| O=C(Nc1ccccc1)c1cc2ccccc2c(N=Nc2cccc([N+](=O)[O-])c2)c1O | OVCAR-5 ovarian | TGI | > 100 µM |
| COc1cc(/C=C/C(=O)c2cccc3ccccc23)cc(OC)c1OC | OVCAR-5 ovarian | TGI | 27.5 µM |
| CC(=O)Nc1ccc(-c2nnc(SCC(=O)Nc3cccc(C)c3)o2)cc1 | OVCAR-5 ovarian | TGI | 26.7 µM |
| N#CCCN(CCC#N)c1ccc(/C=C(/NC(=O)c2cc([N+](=O)[O-])ccc2Cl)C(=O)N=[N+]=[N-])cc1 | OVCAR-5 ovarian | TGI | > 100 µM |

TGI for `Cc1cc(N(CCC#N)S(=O)(=O)c2ccccc2)ccc1C=Nc1cccc(C(=O)O)c1` ?
> 100 µM

Same read-out for `CC1(C)OB(c2ccc(N(CCOS(C)(=O)=O)CCOS(C)(=O)=O)cc2)OC1(C)C` ?
48.3 µM

Same read-out for CC(C)C[S+]1C2=C([O-])CC(C)(C)CC2=Nc2ccccc21 (stereo not drawn) ?
> 100 µM

---

Reported TGI values for a set of compounds
# System: HCT-116 colon
# Protocol: NCI tumour cell line growth inhibition, 48 h

| Compound | Target Entity | TGI |
| --- | --- | --- |
| COc1ccccc1-n1cnc2c1NC(C)(C)N=C2C(N)=O | HCT-116 colon | > 100 µM |

TGI for CC(=O)N1C(C(=O)NN2CCOCC2)CSC1c1ccccc1 (configuration not stated) ?
> 100 µM

Same read-out for `N#CCCN(CCC#N)c1ccc(/C=C(/NC(=O)c2cc([N+](=O)[O-])ccc2Cl)C(=O)N=[N+]=[N-])cc1` ?
> 100 µM

Same read-out for O=S(=O)(C1=CC(S(=O)(=O)c2ccccc2)COC1)c1ccccc1 (configuration not stated) ?
> 100 µM

Same read-out for `Cc1ccccc1/C=C/c1csnn1` ?
> 59.3 µM

Same read-out for `NCCOc1ccc(/C(=C(/Cl)c2ccccc2)c2ccccc2)cc1` ?
20.2 µM

Same read-out for `COc1ccccc1-n1cnc(N)c1C(=O)c1cc(OC)c(OC)c(OC)c1` ?
> 100 µM

Same read-out for `COc1ccc2[nH]c(Cl)c(/C=C3/C(=O)Nc4ccccc43)c2c1` ?
1.17 µM

Same read-out for `Oc1ccc(NC(=S)Nc2ccccc2)cc1` ?
> 100 µM
